# study_system: T1, recombinant human CD63 extracellular loop 2 expressed with a C-terminal human Fc tag (human)
# T1 construct: also called hCD63 EC loop 2-hFc; human CD63 EC loop 2-Fc
# T1 sequence (chain, as listed by the source limits assumed): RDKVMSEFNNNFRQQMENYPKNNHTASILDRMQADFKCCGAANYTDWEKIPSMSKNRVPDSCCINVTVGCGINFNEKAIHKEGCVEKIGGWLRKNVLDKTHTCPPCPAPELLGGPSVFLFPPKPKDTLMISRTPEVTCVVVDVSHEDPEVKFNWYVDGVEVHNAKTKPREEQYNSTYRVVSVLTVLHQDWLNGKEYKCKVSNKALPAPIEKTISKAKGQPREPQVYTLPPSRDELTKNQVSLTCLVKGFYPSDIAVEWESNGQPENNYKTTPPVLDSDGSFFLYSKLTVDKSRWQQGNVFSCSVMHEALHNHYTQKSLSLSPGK
# method_summary: SPR Biacore, mAb captured, 25C
measured_attribute: t1/2 (min)
Write down the numeric answer in min and omit the unit.

Can you share its t1/2? I mean this binder: H2M12454N (antibody, V domains shown, also called H2bM12454N) VH: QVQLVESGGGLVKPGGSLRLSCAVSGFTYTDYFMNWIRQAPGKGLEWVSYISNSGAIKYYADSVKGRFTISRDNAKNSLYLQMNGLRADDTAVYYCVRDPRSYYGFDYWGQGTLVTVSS VL: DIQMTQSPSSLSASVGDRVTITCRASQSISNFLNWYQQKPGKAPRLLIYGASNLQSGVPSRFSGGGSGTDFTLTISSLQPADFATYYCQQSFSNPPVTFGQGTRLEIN
32

What about this binder? H1M12451N (antibody, V domains shown) VH: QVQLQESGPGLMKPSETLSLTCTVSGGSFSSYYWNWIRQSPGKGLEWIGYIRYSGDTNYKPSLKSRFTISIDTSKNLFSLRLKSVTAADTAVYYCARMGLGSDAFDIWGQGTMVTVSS VL: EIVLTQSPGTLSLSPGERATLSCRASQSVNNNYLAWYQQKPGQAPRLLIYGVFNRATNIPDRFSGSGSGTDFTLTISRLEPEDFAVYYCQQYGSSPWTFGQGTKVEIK
138

What about this binder? H2M12385N (antibody, V domains shown, also called H2bM12385N; H2bM12385) VH: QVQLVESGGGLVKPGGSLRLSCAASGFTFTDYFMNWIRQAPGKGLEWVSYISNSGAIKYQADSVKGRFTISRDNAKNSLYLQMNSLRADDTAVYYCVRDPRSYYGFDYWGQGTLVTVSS VL: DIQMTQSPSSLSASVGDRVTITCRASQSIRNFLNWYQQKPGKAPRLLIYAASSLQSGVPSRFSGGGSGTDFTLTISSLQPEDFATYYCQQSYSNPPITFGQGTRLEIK
12
